biological target: α4β7 integrin (Homo sapiens (Human), UniProt P13612+P26010); experiment: Integrin Adhesion Assay: Protocol 4 (MAdCAM-coated plate, RPMI-8866 cells with stable LOF mutation of the ITGB1 gene); format: cell-based; details: RPMI-8866 cells with stable LOF mutation of the ITGB1 gene; read-out: Mean IC50 α4β7 KO^a
Sequence (P13612 34-1032): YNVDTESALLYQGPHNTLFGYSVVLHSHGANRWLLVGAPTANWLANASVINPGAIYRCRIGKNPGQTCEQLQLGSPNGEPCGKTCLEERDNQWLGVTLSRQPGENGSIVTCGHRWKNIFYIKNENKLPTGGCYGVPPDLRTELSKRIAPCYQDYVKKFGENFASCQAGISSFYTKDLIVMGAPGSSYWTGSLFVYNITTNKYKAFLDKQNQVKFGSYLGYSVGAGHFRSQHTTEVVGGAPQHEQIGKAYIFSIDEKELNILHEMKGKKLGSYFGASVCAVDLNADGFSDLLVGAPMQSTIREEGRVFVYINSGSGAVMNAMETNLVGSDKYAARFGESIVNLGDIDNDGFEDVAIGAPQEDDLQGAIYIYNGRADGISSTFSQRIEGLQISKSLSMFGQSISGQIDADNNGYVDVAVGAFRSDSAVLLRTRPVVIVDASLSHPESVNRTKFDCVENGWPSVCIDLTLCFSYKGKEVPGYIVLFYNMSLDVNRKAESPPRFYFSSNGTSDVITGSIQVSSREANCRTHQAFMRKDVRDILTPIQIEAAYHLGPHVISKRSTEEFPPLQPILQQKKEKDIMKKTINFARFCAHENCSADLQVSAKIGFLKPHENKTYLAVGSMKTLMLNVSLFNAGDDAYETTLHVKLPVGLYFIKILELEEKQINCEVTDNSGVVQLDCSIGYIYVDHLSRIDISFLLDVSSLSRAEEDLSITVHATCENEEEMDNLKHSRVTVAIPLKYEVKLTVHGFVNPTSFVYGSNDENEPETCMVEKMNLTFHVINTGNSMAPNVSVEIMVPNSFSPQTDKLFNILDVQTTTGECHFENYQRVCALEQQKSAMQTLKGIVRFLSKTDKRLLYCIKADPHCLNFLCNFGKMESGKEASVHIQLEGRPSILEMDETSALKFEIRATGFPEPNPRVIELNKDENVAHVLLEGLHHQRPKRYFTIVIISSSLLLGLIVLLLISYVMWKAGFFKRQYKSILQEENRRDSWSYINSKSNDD
Sequence (P26010 20-798): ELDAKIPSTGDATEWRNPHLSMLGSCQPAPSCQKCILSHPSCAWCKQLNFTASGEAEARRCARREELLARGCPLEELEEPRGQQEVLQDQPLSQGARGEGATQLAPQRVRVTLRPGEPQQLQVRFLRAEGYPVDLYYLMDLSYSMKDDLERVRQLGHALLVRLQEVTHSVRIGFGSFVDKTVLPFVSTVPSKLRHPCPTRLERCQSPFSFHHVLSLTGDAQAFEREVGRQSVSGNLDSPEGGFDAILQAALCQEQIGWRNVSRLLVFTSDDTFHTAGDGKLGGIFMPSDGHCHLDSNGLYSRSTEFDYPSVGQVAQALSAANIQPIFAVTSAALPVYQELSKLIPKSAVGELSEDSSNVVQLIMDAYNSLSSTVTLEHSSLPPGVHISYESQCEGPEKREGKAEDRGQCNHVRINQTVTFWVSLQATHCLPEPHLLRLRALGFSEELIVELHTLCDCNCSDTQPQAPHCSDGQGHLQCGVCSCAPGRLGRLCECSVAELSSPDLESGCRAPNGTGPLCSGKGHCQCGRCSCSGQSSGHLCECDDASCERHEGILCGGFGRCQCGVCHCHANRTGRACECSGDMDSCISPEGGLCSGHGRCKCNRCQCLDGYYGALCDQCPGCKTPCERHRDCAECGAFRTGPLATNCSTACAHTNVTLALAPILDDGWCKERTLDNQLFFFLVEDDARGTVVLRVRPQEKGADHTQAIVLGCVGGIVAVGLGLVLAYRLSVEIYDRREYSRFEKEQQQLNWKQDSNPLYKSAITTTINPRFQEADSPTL
pIC50: −log10 of the molar value.
This listing pairs compounds with measured pIC50.

- Compound: "Cn1c(=O)c(-c2cccc3c(C[C@H](NC(=O)C4(C(F)(F)F)CCN(CCC(F)(F)F)CC4)C(=O)O)cccc23)c(C(F)(F)F)c2ccccc21"
  pIC50: "7.00 to 8.00"
- Compound: "COc1ccc(CN2CCC(F)(F)CC2)c(OC)c1-c1cccc2c(C[C@H](NC(=O)C3(C(F)(F)F)CCN([C@@H]4COC[C@H]4F)CC3)C(=O)O)cccc12"
  pIC50: "7.00 to 8.00"
- Compound: "O=C(O)[C@H](Cc1cccc2c(-c3cc(CN4CCCC4)cc4ccncc34)cccc12)NC(=O)C1(C(F)(F)F)CCN(C2COC2)CC1"
  pIC50: "> 8.00"
- Compound: "O=C(O)[C@H](Cc1cccc2c(-c3ncc(CN4CCCCC4)c4ccccc34)cccc12)NC(=O)C1(C(F)(F)F)CCN([C@H]2COCC2(F)F)CC1"
  pIC50: "> 8.00"
- Compound: "COc1ccc(CN2CCC(F)(F)CC2)c(OC)c1-c1cccc2c(C[C@H](NC(=O)C3(C(F)(F)F)CCN(C4COCC4(F)F)CC3)C(=O)O)cccc12 (single isomer, unassigned) [Compound 639]"
  pIC50: "> 8.00"
- Compound: "COc1cc2c(c(OC)c1-c1cccc3c(C[C@H](NC(=O)c4c(C)cccc4F)C(=O)O)cccc13)CN(C)CC2"
  pIC50: "> 8.00"
- Compound: "O=C(O)[C@H](Cc1cccc2c(-c3cc4ccccc4cn3)cccc12)NC(=O)C1(C(F)(F)F)CCN(C2COC2)CC1"
  pIC50: "7.00 to 8.00"
- Compound: "CCN(CC)Cc1ccc(OC)c(-c2cccc3c(C[C@H](NC(=O)c4c(C)cccc4F)C(=O)O)cccc23)c1OC"
  pIC50: "> 8.00"
- Compound: "COc1ccc(CN2CCC(F)(F)CC2)c(OC)c1-c1cccc2c(C[C@H](NC(=O)c3c(F)cccc3Cl)C(=O)O)cccc12"
  pIC50: "7.00 to 8.00"
- Compound: "COc1ccc(CN(C)C)c(OC)c1-c1cccc2c(C[C@H](NC(=O)c3c(F)cccc3C(F)(F)F)C(=O)O)cccc12"
  pIC50: "> 8.00"
- Compound: "CN1CCCC1c1cc(-c2cccc3c(C[C@H](NC(=O)C4(C(F)(F)F)CCN(C5COC5)CC4)C(=O)O)cccc23)c2cnccc2c1 (stereo partly shown)"
  pIC50: "> 8.00"
- Compound: "COc1ccc(CN(C)C)c(OC)c1-c1cccc2c(C[C@H](NC(=O)c3c(F)cccc3Cl)C(=O)O)cccc12"
  pIC50: "> 8.00"
- Compound: "COc1ccc(CN2CCCC(F)C2)c(OC)c1-c1cccc2c(C[C@H](NC(=O)c3c(C)cc(C45CCOCC4C5)cc3F)C(=O)O)cccc12 (stereo partly shown)"
  pIC50: "> 8.00"
- Compound: "CN(C)CCc1cc(F)c(C(=O)N[C@@H](Cc2cccc3c(-c4c(C(F)(F)F)c5ccccc5n(C)c4=O)cccc23)C(=O)O)c(F)c1"
  pIC50: "6.00 to 7.00"
- Compound: "Cn1c(=O)c(-c2cccc3c(C[C@H](NC(=O)c4c(F)cc(N5CC(C(F)(F)F)C5)cc4F)C(=O)O)cccc23)c(C(F)(F)F)c2ccccc21"
  pIC50: "6.00 to 7.00"
- Compound: "COc1ccc(CN2CCC(F)(F)CC2)nc1-c1cccc2c(C[C@H](NC(=O)c3c(C)cccc3F)C(=O)O)cccc12"
  pIC50: "7.00 to 8.00"
- Compound: "Cn1c(=O)c(-c2cccc3c(C[C@H](NC(=O)c4c(F)cc(C5CCOCC5)cc4F)C(=O)O)cccc23)c(C(F)(F)F)c2ccccc21"
  pIC50: "6.00 to 7.00"
- Compound: "Cn1c(=O)c(-c2cccc3c(C[C@H](NC(=O)C4(C(F)(F)F)CCN(CC5(F)CCC5)CC4)C(=O)O)cccc23)c(C(F)(F)F)c2ccccc21"
  pIC50: "7.00 to 8.00"
- Compound: "CC1(C(=O)N[C@@H](Cc2cccc3c(-c4nccc5ccc(CCCN6CCCCC6)cc45)cccc23)C(=O)O)CC2CCC(C1)N2CC(F)(F)F (stereo partly shown)"
  pIC50: "> 8.00"
- Compound: "Cn1c(C(F)(F)F)cc(C(F)(F)F)c(-c2cccc3c(C[C@H](NC(=O)C4(C(F)(F)F)CCN(C5COC5)CC4)C(=O)O)cccc23)c1=O"
  pIC50: "> 8.00"
- Compound: "COc1ccc(CN2CC(OC(C)(C)C)C2)c(OC)c1-c1cccc2c(C[C@H](NC(=O)C3(C(F)(F)F)CCN(CC(F)(F)F)CC3)C(=O)O)cccc12"
  pIC50: "> 8.00"
- Compound: "CCCN1CCC(C(=O)N[C@@H](Cc2cccc3c(-c4c(C(F)(F)F)c5ccccc5n(C)c4=O)cccc23)C(=O)O)(C(F)(F)F)CC1"
  pIC50: "7.00 to 8.00"

====

target: α4β7 integrin (Homo sapiens (Human), UniProt P13612+P26010); experiment: Integrin Adhesion Assay: Protocol 4 (MAdCAM-coated plate, RPMI-8866 cells with stable LOF mutation of the ITGB1 gene); format: cell-based; conditions: RPMI-8866 cells with stable LOF mutation of the ITGB1 gene; read-out: Mean IC50 α4β7 KO^a
pIC50: −log10 of the molar value.
Measurement Name: pIC50

- Molecule: "COc1ccc(CN2CCC(F)(F)CC2)c(OC)c1-c1cccc2c(C[C@H](NC(=O)C3(C(F)(F)F)CCN([C@H]4COC[C@@H]4F)CC3)C(=O)O)cccc12 [Compound 669]"
  Measurement Name: "pIC50"
  Result: "> 8.00"
- Molecule: "Cn1c(=O)c(-c2cccc3c(C[C@H](NC(=O)C4(C(F)(F)F)CCN(C(c5ccccc5)C(F)(F)F)CC4)C(=O)O)cccc23)c(C(F)(F)F)c2ccccc21 (some centres unmarked) [Compound 516]"
  Measurement Name: "pIC50"
  Result: "< 6.00"
- Molecule: "CN(C)Cc1cccc2c(-c3cccc4c(C[C@H](NC(=O)[C@]5(C)CC[C@H](N6CCC(F)(F)CC6)CC5)C(=O)O)cccc34)nccc12 [Compound 425]"
  Measurement Name: "pIC50"
  Result: "6.00 to 7.00"
- Molecule: "Cn1c(=O)c(-c2cccc3c(C[C@H](NC(=O)C4(C(F)(F)F)CCN(C5CC(F)(F)C5)CC4)C(=O)O)cccc23)c(C(F)(F)F)c2ccccc21 [Compound 493]"
  Measurement Name: "pIC50"
  Result: "7.00 to 8.00"
- Molecule: "COc1c(CN2CCCCC2)ccc(C(F)(F)F)c1-c1cccc2c(C[C@H](NC(=O)C3(C(F)(F)F)CCN(CC(F)(F)F)CC3)C(=O)O)cccc12 [Compound 662]"
  Measurement Name: "pIC50"
  Result: "7.00 to 8.00"
- Molecule: "COc1ccc(CN2CCC(F)(F)CC2)c(OC)c1-c1cccc2c(C[C@H](NC(=O)C3(C(F)(F)F)CCN(C4COC4)CC3)C(=O)O)cccc12 [Compound 611]"
  Measurement Name: "pIC50"
  Result: "> 8.00"
- Molecule: "COc1cccc(F)c1C(=O)N[C@@H](Cc1cccc2c(-c3c(CN4CCCCC4)cccc3OC)cccc12)C(=O)O [Compound 675]"
  Measurement Name: "pIC50"
  Result: "> 8.00"
- Molecule: "CC(C)(C)C1CCN(Cc2cccc3c(-c4cccc5c(C[C@H](NC(=O)C6(C(F)(F)F)CCN(CC(F)(F)F)CC6)C(=O)O)cccc45)nccc23)CC1 [Compound 659]"
  Measurement Name: "pIC50"
  Result: "7.00 to 8.00"
- Molecule: "CN(C)Cc1cccc2c(-c3cccc4c(C[C@H](NC(=O)C5(C(F)(F)F)CCN(C6COC6)CC5)C(=O)O)cccc34)nccc12 [Compound 591]"
  Measurement Name: "pIC50"
  Result: "> 8.00"
- Molecule: "O=C(O)[C@H](Cc1cccc2c(-c3nccc4ccccc34)cccc12)NC(=O)C1(C(F)(F)F)CCN(C2COC2)CC1 [Compound 497]"
  Measurement Name: "pIC50"
  Result: "> 8.00"
- Molecule: "Cn1c(=O)c(-c2cccc3c(C[C@H](NC(=O)C4(C(F)(F)F)CCN(CC(F)(F)F)CC4)C(=O)O)cccc23)c(C(F)(F)F)c2ccccc21 [Compound 352]"
  Measurement Name: "pIC50"
  Result: "7.00 to 8.00"
- Molecule: "CN(C)Cc1cc(-c2cccc3c(C[C@H](NC(=O)c4c(F)cc(N5CCOC[C@@H]5C(F)(F)F)cc4CN4CCCC4)C(=O)O)cccc23)c2cnccc2c1 [Compound 587]"
  Measurement Name: "pIC50"
  Result: "> 8.00"
- Molecule: "CC1OCCC1N1CCC(C(=O)N[C@@H](Cc2cccc3c(-c4c(C(F)(F)F)c5ccccc5n(C)c4=O)cccc23)C(=O)O)(C(F)(F)F)CC1 (some centres unmarked) [Compound 509]"
  Measurement Name: "pIC50"
  Result: "> 8.00"
- Molecule: "O=C(O)[C@H](Cc1cccc2c(-c3ncc(CN4CCC(C(F)(F)F)CC4)c4ccccc34)cccc12)NC(=O)C1(C(F)(F)F)CCN(C2COC2)CC1 [Compound 580]"
  Measurement Name: "pIC50"
  Result: "> 8.00"
- Molecule: "COc1cccc(OC)c1-c1cccc2c(C[C@H](NC(=O)c3c(C)cccc3F)C(=O)O)cccc12 [Compound 526]"
  Measurement Name: "pIC50"
  Result: "7.00 to 8.00"
- Molecule: "O=C(O)[C@H](Cc1cccc2c(-c3ccc(CN4CCCCC4)c4ccncc34)cccc12)NC(=O)C1(C(F)(F)F)CCN(CC(F)(F)F)CC1 [Compound 555]"
  Measurement Name: "pIC50"
  Result: "> 8.00"
- Molecule: "COc1cccc(CN2CCCCC2)c1-c1cccc2c(C[C@H](NC(=O)c3c(C)cc(C4CC(F)(F)C4)cc3F)C(=O)O)cccc12 [Compound 544]"
  Measurement Name: "pIC50"
  Result: "> 8.00"
- Molecule: "COc1ccc(CN2CCCCC2(C)C)c(OC)c1-c1cccc2c(C[C@H](NC(=O)c3c(C)cccc3F)C(=O)O)cccc12 [Compound 630]"
  Measurement Name: "pIC50"
  Result: "> 8.00"
- Molecule: "COc1ccc(CN(C)C)c(OC)c1-c1cccc2c(C[C@H](NC(=O)c3c(F)ccc(F)c3C)C(=O)O)cccc12 [Compound 589]"
  Measurement Name: "pIC50"
  Result: "> 8.00"
- Molecule: "Cn1c(=O)c(-c2cccc3c(C[C@H](NC(=O)C4(C(F)(F)F)CCN([C@@H]5CCC(F)(F)C5)CC4)C(=O)O)cccc23)c(C(F)(F)F)c2ccccc21 [Compound 494]"
  Measurement Name: "pIC50"
  Result: "7.00 to 8.00"
- Molecule: "Cn1c(=O)c(-c2cccc3c(C[C@H](NC(=O)C4(C(F)(F)F)CCN(C5COC5)CC4)C(=O)O)cccc23)c(C(F)(F)F)c2ccccc21 [Compound 432]"
  Measurement Name: "pIC50"
  Result: "> 8.00"
- Molecule: "CN(C)Cc1cccc2c(-c3cccc4c(C[C@H](NC(=O)C5(C(F)(F)F)CCN([C@H]6CCOC6)CC5)C(=O)O)cccc34)nccc12 [Compound 593]"
  Measurement Name: "pIC50"
  Result: "> 8.00"
- Molecule: "Cc1cc(C(F)(F)F)c(-c2cccc3c(C[C@H](NC(=O)C4(C(F)(F)F)CCN(CC(F)(F)F)CC4)C(=O)O)cccc23)c(=O)n1C [Compound 453]"
  Measurement Name: "pIC50"
  Result: "> 8.00"
